- Target: T1, RADIL, Q96JH8
- T1 sequence (Q96JH8 971-1071, limits assumed, looked up): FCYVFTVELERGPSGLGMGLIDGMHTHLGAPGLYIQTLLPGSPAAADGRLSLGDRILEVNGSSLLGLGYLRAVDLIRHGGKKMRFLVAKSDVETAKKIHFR
- Protocol Details: holdup assay
- Set-up: key: below the threshold = too weak to quantify, mostly under pKd 3.1 to 4
- Cond: plain residues with an end cap or a label only (N-terminal biotin on a linker: ado-ado)
Readout Label: pKd

Example results:
QSPANIYYKV [EFNB1, P52799] | 4.05
VYPNAKVELV [PDLIM4_iso2, P50479;P50479-1] | 5.24
DDENIRTSDV [PLEKHA2, Q9HB19] | below the threshold
PDGQCTVTEV [RNF146, Q9NTX7] | 4.62
LPHGHSTTRV [NLGN4X, Q8N0W4] | 3.7
RRRESYSTTV [EVI5, O60447] | 4.8

So, PAPSSGKDYV [CLDN1, O95832] ? Its pKd was 4

Measured pKd, LKVPPEERLI [CRB2, Q5IJ48] : below the threshold
